B1: glmS ribozyme (parent)
chain: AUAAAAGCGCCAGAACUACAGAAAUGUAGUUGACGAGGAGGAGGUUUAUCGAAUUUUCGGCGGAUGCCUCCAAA

# Variants of: B1
# assay-overview: kcat; higher = faster cleavage; RNA array
# assay-conditions: with glucosamine-6-phosphate
Fewer inactive variants are shown than the library holds.
Rule: Criterion met for kcat not less than 0.0005 s⁻¹, Criterion not met for anything less.

As a guide, the following entries are already answered.
G44C C70U	Criterion not met
C58A C70U	Criterion not met

-- ask Please check the record C50A C71G and state if its kcat is at or above 0.0005 s⁻¹.
-- reply Criterion not met
